Reference source for all entries: paper PMC6445162

biological target: WNV NS2B-NS3 protease (West Nile virus, UniProt P06935); construct: WNV NS2B 40-amino acid cofactor together with the NS3 protease domain; test: Enzyme kinetic inhibition of WNV NS2B-NS3 protease construct (Dixon plot); format: biochemical; conditions: covalently linked WNV NS2B-NS3 construct; substrate Phac-Leu-Lys-Lys-Arg-AMC; Dixon plots, average of at least two measurements
Peptide text beside a SMILES is read from it.
# Lookup of reported Ki keyed by entry

{"compound": "CC(C)(C)[C@H](NC(=O)[C@H](CCCNC(=N)N)NC(=O)[C@H](CCCCN)NC(=O)[C@H](CCCCN)NC(=O)Cc1ccccc1)C(N)=O [inhibitor 22] (HELM PEPTIDE1{[O=C(Cc1ccccc1)[*:2]].K.K.R.[CC(C)(C)[C@H](N[*:1])C(=O)[*:2]].[am]}$$$$V2.0)", "Ki": "140 µM"}
{"compound": "N=C(N)NCCC[C@H](NC(=O)[C@H](CCCCN)NC(=O)[C@H](CCCCN)NC(=O)Cc1ccccc1)C(=O)NCC(=O)NCC(N)=O [inhibitor 17] (HELM PEPTIDE1{[O=C(Cc1ccccc1)[*:2]].K.K.R.G.G.[am]}$$$$V2.0)", "Ki": "1.56 µM"}
{"compound": "N=C(N)NCCC[C@H](NC(=O)[C@H](CCCCN)NC(=O)[C@H](CCCCN)NC(=O)Cc1ccc(CN)cc1)C(N)=O [inhibitor 35]", "Ki": "0.38 µM"}
{"compound": "N=C(N)NCCC[C@H](NC(=O)[C@H](CCCCN)NC(=O)[C@H](CCCCN)NC(=O)Cc1ccccc1)C(=O)NCCCC(N)=O [inhibitor 25] (HELM PEPTIDE1{[O=C(Cc1ccccc1)[*:2]].K.K.R.[O=C(CCCN[*:1])[*:2]].[am]}$$$$V2.0)", "Ki": "15 µM"}

* * *

# Lookup of reported Ki keyed by entry
molecular target: WNV NS2B-NS3 protease (West Nile virus); construct: WNV NS2B 40-amino acid cofactor together with the NS3 protease domain; test: Enzyme kinetic inhibition of WNV NS2B-NS3 protease construct (Dixon plot); format: biochemical; conditions: covalently linked WNV NS2B-NS3 construct; substrate Phac-Leu-Lys-Lys-Arg-AMC; Dixon plots, average of at least two measurements
Peptide text beside a SMILES is read from it.
result type: Ki

{"compound": "N=C(N)NCCC[C@H](NC(=O)[C@H](CCCCN)NC(=O)[C@H](CCCCN)NC(=O)Cc1ccc(-c2ccccc2)cc1)C(N)=O", "result": "0.53 µM"}
{"compound": "C[C@@H](NC(=O)[C@H](CCCNC(=N)N)NC(=O)[C@H](CCCCN)NC(=O)[C@H](CCCCN)NC(=O)Cc1ccccc1)C(N)=O [inhibitor 20] (HELM PEPTIDE1{[O=C(Cc1ccccc1)[*:2]].K.K.R.[dA].[am]}$$$$V2.0)", "result": "75 µM"}
{"compound": "N=C(N)NCCC[C@H](NC(=O)[C@H](CCCCN)NC(=O)[C@H](CCCCN)NC(=O)Cc1ccc2c(c1)OCO2)C(N)=O", "result": "0.68 µM"}
{"compound": "N=C(N)NCCC[C@H](NC(=O)[C@H](CCCCN)NC(=O)[C@H](CCCCN)NC(=O)[C@@H](N)C12CC3CC(CC(C3)C1)C2)C(N)=O [inhibitor 44] (HELM PEPTIDE1{[N[C@H](C(=O)[*:2])C12CC3CC(CC(C3)C1)C2].K.K.R.[am]}$$$$V2.0)", "result": "70 µM"}
{"compound": "N=C(N)NCc1ccc(CC(NC(=O)Cc2ccccc2)C(=O)NC(CCCCN)C(=O)NCC2CCC(NC(=N)N)CC2)cc1 (centres unmarked)", "result": "44 µM"}
{"compound": "N=C(N)NCCC[C@H](NC(=O)[C@H](CCCCN)NC(=O)[C@H](CCCCN)NC(=O)Cc1ccc(CNC(=N)N)cc1)C(N)=O", "result": "0.11 µM"}
{"compound": "N=C(N)NCCC[C@H](NC(=O)[C@H](CCCCN)NC(=O)[C@H](CCCCN)NC(=O)CC1CCCCC1)C(N)=O", "result": "4.8 µM"}
{"compound": "CN(CC(N)=O)C(=O)[C@H](CCCNC(=N)N)NC(=O)[C@H](CCCCN)NC(=O)[C@H](CCCCN)NC(=O)Cc1ccccc1 [inhibitor 24] (HELM PEPTIDE1{[O=C(Cc1ccccc1)[*:2]].K.K.R.[Sar].[am]}$$$$V2.0)", "result": "50 µM"}
{"compound": "N=C(N)NCCC[C@H](NC(=O)[C@H](CCCCN)NC(=O)[C@H](CCCCN)NC(=O)Cc1cccc(N)c1)C(N)=O", "result": "1.2 µM"}
{"compound": "N=C(N)NCCC[C@H](NC(=O)[C@H](CCCCN)NC(=O)[C@H](CCCCN)NC(=O)Cc1ccc(Cl)c(Cl)c1)C(=O)NCC(N)=O [inhibitor 30] (HELM PEPTIDE1{[O=C(Cc1ccc(Cl)c(Cl)c1)[*:2]].K.K.R.G.[am]}$$$$V2.0)", "result": "1.8 µM"}
{"compound": "N=C(N)NCCC[C@H](NC(=O)[C@H](CCCCN)NC(=O)[C@H](CCCCN)NC(=O)Cc1cccc(CN)c1)C(N)=O", "result": "0.36 µM"}
{"compound": "N=C(N)NCCC[C@H](NC(=O)[C@H](CCCCN)NC(=O)[C@H](CCCCN)NC(=O)Cc1ccc(Cl)c(Cl)c1)C(N)=O", "result": "1.13 µM"}
{"compound": "N=C(N)NCCC[C@H](NC(=O)[C@H](CCCCN)NC(=O)[C@H](CCCCN)NC(=O)Cc1cccc(CNC(=N)N)c1)C(N)=O", "result": "0.18 µM"}
{"compound": "N=C(N)NCCC[C@H](NC(=O)[C@H](CCCCN)NC(=O)[C@H](CCCCN)NC(=O)CC12CC3CC(CC(C3)C1)C2)C(N)=O", "result": "13.8 µM"}
{"compound": "N=C(N)NCCC[C@H](NC(=O)[C@H](CCCCN)NC(=O)[C@H](CCCCN)NC(=O)Cc1ccccc1)C(=O)O [inhibitor 28, Phac-Lys-Lys-Arg-OH] (HELM PEPTIDE1{[O=C(Cc1ccccc1)[*:2]].K.K.R}$$$$V2.0)", "result": "27 µM"}
{"compound": "N=C(N)NCCC[C@H](NC(=O)[C@H](CCCCN)NC(=O)[C@H](CCCCN)NC(=O)Cc1ccccc1)C(=O)NCCCCCC(N)=O [inhibitor 26] (HELM PEPTIDE1{[O=C(Cc1ccccc1)[*:2]].K.K.R.[O=C(CCCCCN[*:1])[*:2]].[am]}$$$$V2.0)", "result": "17 µM"}
{"compound": "N=C(N)NCCC[C@H](NC(=O)[C@H](CCCCN)NC(=O)[C@H](CCCCN)NC(=O)Cc1ccc(O)cc1)C(N)=O", "result": "0.54 µM"}
{"compound": "N=C(N)NCCC[C@H](NC(=O)[C@H](CCCCN)NC(=O)[C@H](CCCCN)NC(=O)Cc1ccccc1)C(=O)N1CCC[C@H]1C(N)=O [inhibitor 23] (HELM PEPTIDE1{[O=C(Cc1ccccc1)[*:2]].K.K.R.P.[am]}$$$$V2.0)", "result": "200 µM"}
{"compound": "N=C(N)NCCC[C@H](NC(=O)[C@H](CCCCN)NC(=O)[C@H](CCCCN)NC(=O)Cc1ccccc1)C(=O)NCC(N)=O [inhibitor 18] (HELM PEPTIDE1{[O=C(Cc1ccccc1)[*:2]].K.K.R.G.[am]}$$$$V2.0)", "result": "2.56 µM"}
{"compound": "C[C@H](NC(=O)[C@H](CCCNC(=N)N)NC(=O)[C@H](CCCCN)NC(=O)[C@H](CCCCN)NC(=O)Cc1ccccc1)C(N)=O [inhibitor 19] (HELM PEPTIDE1{[O=C(Cc1ccccc1)[*:2]].K.K.R.A.[am]}$$$$V2.0)", "result": "25 µM"}
